Target: FAAH in human bladder epithelial cancer-derived cell line 5678 cells (Homo sapiens)
Construct: host or cells: human bladder epithelial cancer-derived cell line ('5678' [sic], HTB-9)
Sequence (O00519 1-579): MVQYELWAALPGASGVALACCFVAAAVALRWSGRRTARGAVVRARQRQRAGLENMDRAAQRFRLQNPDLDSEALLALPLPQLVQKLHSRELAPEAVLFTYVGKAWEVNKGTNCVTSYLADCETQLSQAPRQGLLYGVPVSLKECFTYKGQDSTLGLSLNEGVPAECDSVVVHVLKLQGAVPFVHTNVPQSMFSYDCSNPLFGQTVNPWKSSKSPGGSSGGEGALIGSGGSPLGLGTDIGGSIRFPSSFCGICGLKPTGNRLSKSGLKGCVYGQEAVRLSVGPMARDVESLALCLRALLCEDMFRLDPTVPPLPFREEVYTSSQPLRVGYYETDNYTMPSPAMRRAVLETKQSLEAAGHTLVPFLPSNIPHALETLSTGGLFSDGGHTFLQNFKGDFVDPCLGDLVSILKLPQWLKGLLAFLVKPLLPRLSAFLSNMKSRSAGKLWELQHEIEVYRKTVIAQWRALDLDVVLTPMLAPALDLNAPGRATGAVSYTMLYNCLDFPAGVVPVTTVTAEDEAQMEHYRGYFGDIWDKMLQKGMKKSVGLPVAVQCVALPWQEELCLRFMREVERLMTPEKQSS
Experiment: Screening for FAAH activity-inhibiting substance with human bladder epithelial cancer-derived cell (IC50, Table 64)
Assay type: cell-based
Conditions: human bladder epithelial cancer-derived cell line 5678 cells; read-out: cell FAAH IC50
Method: Screening for FAAH Activity-Inhibiting Substance with Human Bladder Epithelial Cancer-Derived Cell (1) Screening for FAAH Activity-Inhibiting Substance: […] A test compound dissolved in DMSO to have a concentration of 10 mM was dissolved in the substrate solution so as to have a varying concentration of from 0.003 nM to 30 μM. According to the method mentioned above, the compound was analyzed for its influence on FAAH activity. […]
pIC50: −log10 of the molar value.
observable: pIC50

[[record]]
smilesinput = "O=C(Nc1ccccc1)C1CCN(C(=O)Oc2cccnc2)CC1"
numericvalue = 9.16


// data source = patent US7919495B2
